tgt: CDK9/CyclinT1 (Homo sapiens (Human))
Sequence (P50750 whole entry): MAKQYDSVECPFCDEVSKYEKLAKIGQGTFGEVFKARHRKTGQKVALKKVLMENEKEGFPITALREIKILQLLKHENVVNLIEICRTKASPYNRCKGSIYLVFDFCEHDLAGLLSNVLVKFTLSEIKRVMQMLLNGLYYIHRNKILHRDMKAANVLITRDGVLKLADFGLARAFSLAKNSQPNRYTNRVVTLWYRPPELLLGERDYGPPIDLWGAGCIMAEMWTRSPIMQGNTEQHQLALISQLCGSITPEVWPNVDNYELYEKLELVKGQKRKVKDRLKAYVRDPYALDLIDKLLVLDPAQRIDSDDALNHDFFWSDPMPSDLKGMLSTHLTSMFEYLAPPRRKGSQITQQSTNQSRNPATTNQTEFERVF
Sequence (O60563 whole entry partner): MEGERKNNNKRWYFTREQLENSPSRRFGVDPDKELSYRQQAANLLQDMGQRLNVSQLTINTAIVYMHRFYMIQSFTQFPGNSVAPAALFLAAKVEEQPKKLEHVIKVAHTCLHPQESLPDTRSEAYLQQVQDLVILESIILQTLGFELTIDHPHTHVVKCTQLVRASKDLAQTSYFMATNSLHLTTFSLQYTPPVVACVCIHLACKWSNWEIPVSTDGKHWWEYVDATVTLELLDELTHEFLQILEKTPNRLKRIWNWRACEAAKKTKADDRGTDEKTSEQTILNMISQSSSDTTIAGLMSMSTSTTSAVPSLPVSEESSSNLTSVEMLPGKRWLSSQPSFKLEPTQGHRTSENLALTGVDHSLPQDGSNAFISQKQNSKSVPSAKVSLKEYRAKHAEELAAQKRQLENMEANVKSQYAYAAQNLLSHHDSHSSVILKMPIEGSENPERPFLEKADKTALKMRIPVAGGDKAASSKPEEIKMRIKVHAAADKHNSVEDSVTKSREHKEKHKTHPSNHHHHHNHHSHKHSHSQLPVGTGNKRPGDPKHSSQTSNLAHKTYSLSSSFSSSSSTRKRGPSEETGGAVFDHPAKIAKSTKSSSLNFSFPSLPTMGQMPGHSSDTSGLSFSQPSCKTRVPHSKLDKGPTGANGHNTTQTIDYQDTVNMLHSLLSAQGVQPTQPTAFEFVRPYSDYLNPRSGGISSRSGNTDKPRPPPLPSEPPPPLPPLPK
experimental details: CDK9/CyclinT1 kinase inhibitory activity (Caliper mobility shift)
study conditions: read-out: CDK9/Cyclin T1 IC50
The entries below are paired with their reported IC50.

# compound, tgt, test result
rows = [
    ("[2H]C([2H])([2H])NS(=O)(=O)c1ccc(Nc2ncc(CC)c(OC3CCOCC3(C)O)n2)cc1 (single isomer, unassigned) [Example 152b]", "CDK9/CyclinT1 (Homo sapiens (Human))", "≥ 1000 nM"),
    ("C[C@]1(O)COC[C@H]1Oc1nc(NC2CCN(S(C)(=O)=O)CC2)ncc1C(F)(F)F (relative stereo) [Example 104a]", "CDK9/CyclinT1 (Homo sapiens (Human))", "100 to 1000 nM"),
    ("[2H]C1([2H])CC(O)C(Oc2nc(Nc3ccc(S(=O)(=O)NC([2H])([2H])[2H])cc3)ncc2C(F)(F)F)C1 (single isomer, unassigned) [Example 110a]", "CDK9/CyclinT1 (Homo sapiens (Human))", "100 to 1000 nM"),
    ("Cc1cccc(-c2nc(Nc3ccc(S(N)(=O)=O)cc3)ncc2C#N)c1", "CDK9/CyclinT1 (Homo sapiens (Human))", "10 to 100 nM"),
]

Kindly review the next compound as well.
Give the measured IC50 of CC1(O)CCCC1Oc1nc(Nc2ccc(S(N)(=O)=O)cc2)ncc1C1CC1 (single isomer, unassigned) [Example 154a] .
10 to 100 nM

* * *

tgt: CDK2/CyclinE1 (Homo sapiens (Human))
experimental details: CDK2/CyclinE1 kinase inhibitory activity (Caliper mobility shift)
study conditions: read-out: CDK2/Cyclin El IC50
The entries below are paired with their reported IC50.

# compound, IC50
rows = [
    ("Cn1ccc(S(=O)(=O)N2CCC(Nc3ncc(C#N)c(OCC4(C)CCCC4)n3)CC2)n1 [Example 63]", "< 0.01 µM"),
    ("Cn1cnc(S(=O)(=O)N2CCC(Nc3ncc(C#N)c(OC4CCCC4(C)O)n3)CC2)c1 (single isomer, unassigned) [Example 50a]", "< 0.01 µM"),
    ("[2H]C([2H])([2H])NS(=O)(=O)c1ccc(Nc2ncc(CC)c(OC3CCOCC3O)n2)cc1 (single isomer, unassigned) [Example 151a]", "< 0.01 µM"),
    ("NS(=O)(=O)c1ccc(Nc2ncc(C(F)(F)F)c(OC3CCOCC3O)n2)cc1 (single isomer, unassigned) [Example 114b]", "0.01 to 0.1 µM"),
    ("CCc1cnc(Nc2ccc(S(N)(=O)=O)cc2)nc1O[C@@H]1CCC[C@@H]1O (single isomer, unassigned) [Example 133a]", "< 0.01 µM"),
]

Param readout = IC50; param system = CDK2/CyclinE1 (Homo sapiens (Human)); param query = N#Cc1cnc(Nc2ccc(S(N)(=O)=O)cc2)nc1OCC1CCCC1 [Example 1] ; response: value
0.01 to 0.1 µM

Param readout = IC50; param system = CDK2/CyclinE1 (Homo sapiens (Human)); param query = Cn1cc(S(=O)(=O)N2CCC(Nc3ncc(C(F)(F)F)c(OC4CCOCC4(C)O)n3)CC2)cn1 (single isomer, unassigned) [Example 125a] ; response: value
< 0.01 µM

Param readout = IC50; param system = CDK2/CyclinE1 (Homo sapiens (Human)); param query = CC1(O)CCCCC1Oc1nc(Nc2ccc(S(N)(=O)=O)cc2)ncc1C#N (single isomer, unassigned) [Example 24a] ; response: value
< 0.01 µM

Param readout = IC50; param system = CDK2/CyclinE1 (Homo sapiens (Human)); param query = NS(=O)(=O)c1ccc(Nc2ncc(C(F)(F)F)c(O[C@@H]3CCC[C@@H]3O)n2)cc1 (single isomer, unassigned) [Example 99a] ; response: value
< 0.01 µM

Param readout = IC50; param system = CDK2/CyclinE1 (Homo sapiens (Human)); param query = N#Cc1cnc(Nc2ccc(S(N)(=O)=O)cc2)nc1OCC1CCCC1O (single isomer, unassigned) [Example 19b] ; response: value
< 0.01 µM

Param readout = IC50; param system = CDK2/CyclinE1 (Homo sapiens (Human)); param query = O=S(=O)(NC1CC1)c1ccc(Nc2ncc(C(F)(F)F)c(OC3CCCC3O)n2)cc1 (single isomer, unassigned) [Example 107b] ; response: value
< 0.01 µM
